Tested on: Escherichia coli
EXPERIMENTAL_PROTOCOL: Covalent binding to Escherichia coli pBR322 DNA Guanine-guanine site assessed as inhibition of BamH1-mediated restriction digestion at 1250 uM by restriction endonuclease analysis
The source made the active and inactive calls. The calls are words filed in the database; no cut-off is given here.
Allowed answers: active, inactive

Check out these entries, answers already filled in.
Incoming: Entry Cn1nnnc1Sc1ncnc2c1ncn2CC1CCCCC1 : call = ?
Outgoing: active

Incoming: Entry Cn1nnnc1Sc1ncnc2c1ncn2C : call = ?
Outgoing: active

Incoming: Entry Cn1nnnc1Sc1ncnc2[nH]cnc12 : call = ?
Outgoing: active

***
Incoming: Entry CCCCCCn1cnc2c(Sc3nnnn3C)ncnc21 : call = ?
Outgoing: active

Incoming: Entry CCOC(=O)Cn1cnc2c(Sc3nnnn3C)ncnc21 : call = ?
Outgoing: active

* * *

Test system: Escherichia coli
EXPERIMENTAL_PROTOCOL: Covalent binding to Escherichia coli pBR322 DNA Guanine-guanine site assessed as inhibition of BamH1-mediated restriction digestion at 1250 uM by restriction endonuclease analysis
Activity calls are given as the source filed them. No cut-off for these calls is given here.
Allowed answers: active, inactive

Check out these entries, answers already filled in.
Incoming: Entry CC(C)n1cnc2c(Nc3nnn[nH]3)ncnc21 : call = ?
Outgoing: inactive

Incoming: Entry Cn1nnnc1Sc1ncnc2c1ncn2Cc1ccccc1 : call = ?
Outgoing: active

Incoming: Entry CCCn1cnc2c(Nc3nnn[nH]3)ncnc21 : call = ?
Outgoing: inactive

***
Incoming: Entry c1nc(Nc2nnn[nH]2)c2nc[nH]c2n1 : call = ?
Outgoing: inactive

Incoming: Entry Cn1nnnc1Sc1ncnc2c1ncn2CC1CCC1 : call = ?
Outgoing: active

Incoming: Entry CC(C)n1cnc2c(Sc3nnnn3C)ncnc21 : call = ?
Outgoing: active

Incoming: Entry CCCn1cnc2c(Sc3nnnn3C)ncnc21 : call = ?
Outgoing: active

Incoming: Entry CCCCCCn1cnc2c(Nc3nnn[nH]3)ncnc21 : call = ?
Outgoing: inactive
